biological target: HLA-B*07:0 (Homo sapiens); test: MHC binding assay, UV-ligand exchange ELISA; conditions: peptide exchange yield, binding to HLA-B*07:0
ASSAY ENDPOINT: Peptide exchange

64 (LPTRSLPAF; listed as Homo sapiens) [compound 64]
+++ (≥50% = +++)
157 (APLRAGWAA; listed as Homo sapiens) [compound 157]
++++ (≥75% = ++++)
182 (RPSLPCRSF; listed as Homo sapiens) [compound 182]
+++ (≥50% = +++)
52 (SPLPHLGPL; listed as Homo sapiens) [compound 52]
+++ (≥50% = +++)
184 (VVHGGMSIF; listed as Homo sapiens) [compound 184]
++ (≥20% = ++)
156 (SLRVPSPAL; listed as Homo sapiens) [compound 156]
+++ (≥50% = +++)

Entry under review: 162 (LPVHGPLPLLL; listed as Homo sapiens) [compound 162] . Reported Peptide exchange? +++ (≥50% = +++)

// Peptide exchange lookup, key: 140 (QPAPQPLL; listed as Homo sapiens) [compound 140] +++ (≥50% = +++)

Entry 191 (APLLPGPAA; listed as Homo sapiens) [compound 191] has what Peptide exchange? ++++ (≥75% = ++++)

// Peptide exchange lookup, key: 210 (ASRIQVILL; listed as Homo sapiens) [compound 210] +++ (≥50% = +++)

Need Peptide exchange, item 207 (LPALLRSL; listed as Homo sapiens) [compound 207] ++++ (≥75% = ++++)

// lookup Peptide exchange for 120 (APGPRSQGL; listed as Homo sapiens) [compound 120] +++ (≥50% = +++)

Query (substance): 89 (SPSSPLLLLA; listed as Homo sapiens) [compound 89] ; field requested: Peptide exchange +++ (≥50% = +++)

State the recorded Peptide exchange for this entry: 126 (NPELLVILL; listed as Homo sapiens) [compound 126] +++ (≥50% = +++)

Dear colleague, I am looking for the recorded Peptide exchange of the following substance: 114 (VPHHLLSSV; listed as Homo sapiens) [compound 114] ++++ (≥75% = ++++)

Param item = 199 (RAPLPLLLL; listed as Homo sapiens) [compound 199] ; retrieve measured Peptide exchange. +++ (≥50% = +++)

Sample 129 (IPISIFKMA; listed as Homo sapiens) [compound 129] — what was its Peptide exchange? +++ (≥50% = +++)

I am curious: what Peptide exchange value has been reported for 109 (MPKLFLTAC; listed as Homo sapiens) [compound 109] ? ++++ (≥75% = ++++)

# Peptide exchange lookup, item 85 (LPHPVNSGL; listed as Homo sapiens) [compound 85] +++ (≥50% = +++)

Entry 124 (SPSSNSREL; listed as Homo sapiens) [compound 124] has what Peptide exchange? +++ (≥50% = +++)
